assay: Toxicity (LD50) in mice by the Wilcox method, Comparative test 7; type: in vivo; details: mouse, in vivo, po, peroral, read-out: LD50 peroral
Structures can show the parent of a compound that is named as a salt.
reported endpoint: LD50 (mg/kg)
Hi! Could you send only the number? It should be in mg/kg, unit omitted.

Recorded result, COc1cc2c(cc1OC)-c1c(OC)c(OC)cc3c1C(C2)N(C)CC3 (racemic) [d,l-glaucine hydrobromide] , LD50: 686

Value of LD50 reported for the compound COc1cc2c(cc1OC)-c1c(OC)c(OC)cc3c1[C@H](C2)N(C)CC3 [d-glaucine hydrobromide, reference compound] is 345

Sample COc1ccc2c3c1O[C@H]1[C@@H](O)C=C[C@H]4[C@@H](C2)N(C)CC[C@@]341 [codeine phosphate, reference compound] ; LD50 observed: 640

###

assay: Toxicity (LD50) in mice by the Wilcox method, Comparative test 7; type: in vivo; details: mouse, in vivo, sc, subcutaneous, read-out: LD50 subcutaneous
Counter-ions that a name gives are not always drawn.
I'd appreciate it if you could supply LD50 values for the items below.
Kindly report the value followed by its unit.

Entry COc1cc2c(cc1OC)-c1c(OC)c(OC)cc3c1[C@H](C2)N(C)CC3 [d-glaucine hydrobromide, reference compound] ; LD50 = 125 mg/kg

The reported LD50 of the compound COc1cc2c(cc1OC)-c1c(OC)c(OC)cc3c1C(C2)N(C)CC3 (racemic) [d,l-glaucine hydrobromide] was 320 mg/kg

Input COc1ccc2c3c1O[C@H]1[C@@H](O)C=C[C@H]4[C@@H](C2)N(C)CC[C@@]341 [codeine phosphate, reference compound] . Output LD50: 230 mg/kg

Attribution: patent US4370331A
